# Test system: PC-3 prostate
# experiment_notes: NCI-60 one-dose screen, 48 h
# assay_conditions: 10 µM
This is part of a sample that, as a whole, favours compounds with a hit. Of some 83,000 tested, about 20% had one in any assay. Active and inactive are the calls of the source. How the source made its calls: active means growth percent below 10; inactive means the rest.
API: response.call in active, inactive

Use these answered entries as a reference point.
Query: What is the recorded call for this compound in the test? CCCCn1c(=O)[nH]c2c(c1=O)C(c1ccc(Cl)cc1)c1c([nH]c(=O)n(CCCC)c1=O)N2
Result: inactive

Query: Same question for CCCCCCCOc1cccc(/C=C2/C(=O)N=C3SCCCN32)c1 please.
Result: inactive

Shifting focus to the compound that follows.
Query: What is the recorded call for this compound in the test? N=C(N)c1ccc(-c2ccc(-c3ccccc3)s2)cc1F
Result: active

* * *

# Test system: CAKI-1 renal
# experiment_notes: NCI-60 one-dose screen, 48 h (100 = growth as untreated, 0 = no growth, -100 = all killed)
# assay_conditions: 10 µM
Compounds without any hit were thinned out: in the full panel of roughly 83,000, 20% have a hit.
Examples of compounds with documented growth follow.
# unit: % | format: bare number

Query: Can you share its growth? I mean this compound: COc1cc(C2C=C(c3ccc(Cl)cc3)N=C3SC(C)=CN32)cc(OC)c1OC (stereo not given)
Result: 88.7

Query: Same question for COc1ccc(-c2nsc3c2NC(=O)CC3c2ccc(Cl)cc2)cc1 (stereo not given) please.
Result: 80.2

Query: Same question for COc1ccc(S(=O)(=O)Nc2ccc(OCc3nnc(-c4ccc(Cl)cc4)o3)c(F)c2)cc1 please.
Result: 54.6

Query: Same question for Cc1cc(=O)oc2cc(OCc3cn(CC(O)CO)nn3)ccc12 (stereo not given) please.
Result: 109

Query: Same question for CCCCn1c(=O)[nH]c(N)c(C(c2ccc(Cl)cc2)c2c(N)[nH]c(=O)n(CCCC)c2=O)c1=O please.
Result: 90.7

Query: Same question for C(=C\c1nc2ccccc2s1)/c1ccc(N2CCOCC2)s1 please.
Result: 83.3

Query: Same question for Cc1ccc2nc3[nH]c(=O)[nH]c(=O)c3c(N)c2c1 please.
Result: 58

* * *

# Test system: MCF7 breast
# experiment_notes: NCI-60 one-dose screen, 48 h
# assay_conditions: 10 µM
This is part of a sample that, as a whole, favours compounds with a hit. Of some 83,000 tested, about 20% had one in any assay. Active and inactive are the calls of the source. The calls were made as follows: active = growth percent below 10; inactive = the rest.
API: response.call in yes (1) for active, no (0) for inactive

Use these answered entries as a reference point.
Query: What is the recorded call for this molecule in the test? CCc1ccc(-c2nnc(COc3ccc(-c4nc5cc(Cl)c(Cl)cc5[nH]4)cc3OC)o2)cc1
Result: no (0)

Query: Same question for CC(=O)Nc1ccc(Sc2ccc(NC(C)=O)cc2)cc1 please.
Result: no (0)

Query: Same question for NC1CCC(Nc2nc(NCc3cc(Cl)ccc3O)c3ncn(C4CCCC4)c3n2)CC1 (configuration not stated) please.
Result: yes (1)

Query: Same question for COc1ccc(S(=O)(=O)Nc2ccc(OCc3nnc(-c4ccc(Cl)cc4)o3)c(F)c2)cc1 please.
Result: no (0)

Query: Same question for COc1cc(-c2nc3cc(Cl)c(Cl)cc3[nH]2)ccc1OCC(=O)NN please.
Result: no (0)

Query: Same question for O=C(Nc1cccc(Cl)c1)OCC(COC(=O)Nc1cccc(Cl)c1)(COC(=O)Nc1cccc(Cl)c1)[N+](=O)[O-] please.
Result: no (0)

Others:
Query: What is the recorded call for this molecule in the test? COc1cc(OC)cc(-c2n/c(=C\c3c(O)[nH]c4ccc(OC)cc34)cc3c2=Nc2ccccc2-3)c1
Result: yes (1)

Query: Same question for O=C(Cn1ccc(=O)[nH]c1=O)c1ccc([N+](=O)[O-])o1 please.
Result: no (0)

Query: Same question for CCOC(=O)Cn1nnc(-c2ccc(OCc3ccccc3F)cc2)n1 please.
Result: no (0)

Query: Same question for COc1cccc(-c2nnc(COc3ccc(-c4nc5ccc(C)cc5[nH]4)cc3OC)o2)c1 please.
Result: no (0)

Query: Same question for CCCn1c(=O)c2c(nc(-c3cccc(OCCCCl)c3)n2C)n(CCC)c1=O please.
Result: no (0)

Query: Same question for CCN(CC)CCCOC(=O)Nc1ccccc1Cl please.
Result: no (0)

Query: Same question for COc1ccc(C2C=C(c3ccc(Cl)c(Cl)c3)N=C3SC(C)=CN32)cc1OC (configuration not stated) please.
Result: no (0)

Query: Same question for CCOc1cc(Br)c(C(C)NC(=O)c2cccc(OC)c2)cc1OCC (configuration not stated) please.
Result: no (0)
